- Target Desc: UniProtKB P21447
- Sequence (P21447 whole entry): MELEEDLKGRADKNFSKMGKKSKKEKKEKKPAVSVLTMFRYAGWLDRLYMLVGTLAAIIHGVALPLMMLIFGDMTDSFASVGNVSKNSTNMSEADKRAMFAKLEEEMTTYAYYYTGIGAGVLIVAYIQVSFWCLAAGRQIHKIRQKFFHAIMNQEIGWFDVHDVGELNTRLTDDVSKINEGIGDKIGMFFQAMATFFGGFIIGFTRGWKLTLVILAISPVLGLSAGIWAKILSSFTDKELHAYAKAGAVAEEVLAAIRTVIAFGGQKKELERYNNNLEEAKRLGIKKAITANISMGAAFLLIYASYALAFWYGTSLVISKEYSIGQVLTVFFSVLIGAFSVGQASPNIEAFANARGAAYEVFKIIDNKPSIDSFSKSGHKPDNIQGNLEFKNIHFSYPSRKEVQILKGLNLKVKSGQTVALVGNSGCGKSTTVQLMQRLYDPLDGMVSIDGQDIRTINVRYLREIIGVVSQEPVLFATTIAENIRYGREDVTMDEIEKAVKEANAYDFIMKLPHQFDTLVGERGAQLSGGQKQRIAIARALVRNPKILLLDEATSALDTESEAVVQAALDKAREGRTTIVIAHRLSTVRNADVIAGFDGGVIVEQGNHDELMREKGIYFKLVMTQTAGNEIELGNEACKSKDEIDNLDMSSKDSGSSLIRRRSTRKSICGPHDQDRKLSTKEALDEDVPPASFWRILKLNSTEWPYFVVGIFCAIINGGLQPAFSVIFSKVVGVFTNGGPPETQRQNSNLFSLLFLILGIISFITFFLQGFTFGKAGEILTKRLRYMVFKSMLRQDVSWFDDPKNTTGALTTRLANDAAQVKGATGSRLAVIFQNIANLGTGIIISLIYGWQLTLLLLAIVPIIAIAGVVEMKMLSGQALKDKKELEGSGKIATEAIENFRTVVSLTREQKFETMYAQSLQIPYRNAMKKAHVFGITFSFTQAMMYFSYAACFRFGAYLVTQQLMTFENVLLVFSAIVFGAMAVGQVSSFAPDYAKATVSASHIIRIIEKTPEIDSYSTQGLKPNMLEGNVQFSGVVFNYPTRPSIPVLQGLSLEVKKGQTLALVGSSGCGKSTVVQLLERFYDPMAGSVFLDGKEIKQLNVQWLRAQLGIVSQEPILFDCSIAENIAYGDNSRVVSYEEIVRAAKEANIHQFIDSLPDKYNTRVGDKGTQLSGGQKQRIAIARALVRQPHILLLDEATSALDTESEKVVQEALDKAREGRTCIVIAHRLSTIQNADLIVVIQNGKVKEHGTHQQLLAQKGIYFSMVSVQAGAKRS
- Assay Procedure: Gentest ABC transporter membrane ATPase assay
- Run Conditions: 0–300 μM, 30 min, 37°C
For each record, check the reported Vmax: if it is below 30 µM/min write 1, else write 0.

compound="OCc1cc(C(O)CNCCCCCCOCCCCc2ccccc2)ccc1O (centres unmarked)" target_desc="UniProtKB P21447" discrete_label=1
compound=CC(C)(C)NC(=O)[C@@H]1C[C@@H]2CCCC[C@@H]2CN1C[C@@H](O)[C@H](Cc1ccccc1)NC(=O)[C@H](CC(N)=O)NC(=O)c1ccc2ccccc2n1 target_desc="UniProtKB P21447" discrete_label=0
compound=CC[C@@]1([C@@H]2O[C@@H]([C@H]3O[C@@](O)(CO)[C@H](C)C[C@@H]3C)C[C@@H]2C)CC[C@H]([C@]2(C)CC[C@]3(C[C@H](O)[C@@H](C)[C@@H]([C@@H](C)[C@@H](OC)[C@H](C)C(=O)O)O3)O2)O1 target_desc="UniProtKB P21447" discrete_label=1
compound=COc1cc2c(c(OC)c1OC)-c1ccc(OC)c(=O)cc1[C@@H](NC(C)=O)CC2 target_desc="UniProtKB P21447" discrete_label=1
compound=CC[C@H]1OC(=O)[C@H](C)[C@@H](O[C@H]2C[C@@](C)(OC)[C@@H](O)[C@H](C)O2)[C@H](C)[C@@H](O[C@@H]2O[C@H](C)C[C@H](N(C)C)[C@H]2O)[C@](C)(O)C[C@@H](C)C(=O)[C@H](C)[C@@H](O)[C@]1(C)O target_desc="UniProtKB P21447" discrete_label=1
compound=CCc1cc2c(cc1CC)CC(NC[C@H](O)c1ccc(O)c3[nH]c(=O)ccc13)C2 target_desc="UniProtKB P21447" discrete_label=0
compound=O=C1c2c(O)ccc(O)c2C(=O)c2c(NCCNCCO)ccc(NCCNCCO)c21 target_desc="UniProtKB P21447" discrete_label=1
compound="CC(C)(C)NCC(O)c1ccc(O)c(CO)c1 (centres unmarked)" target_desc="UniProtKB P21447" discrete_label=0
compound=C[C@H]1O[C@@H](O[C@H]2[C@@H](O)C[C@H](O[C@H]3[C@@H](O)C[C@H](O[C@H]4CC[C@@]5(C)[C@H](CC[C@@H]6[C@@H]5C[C@@H](O)[C@]5(C)[C@@H](C7=CC(=O)OC7)CC[C@]65O)C4)O[C@@H]3C)O[C@@H]2C)C[C@H](O)[C@@H]1O target_desc="UniProtKB P21447" discrete_label=1
compound=COC(=O)c1ccccc1-c1c2ccc(=N)cc-2oc2cc(N)ccc12.Cl target_desc="UniProtKB P21447" discrete_label=0
compound=COc1ccc(C[C@H](N)C(=O)N[C@H]2[C@@H](O)[C@H](n3cnc4c(N(C)C)ncnc43)O[C@@H]2CO)cc1 target_desc="UniProtKB P21447" discrete_label=1
